Target: human ENT1 (Homo sapiens)
Test: ENT1 binding assay (competition with Sahenta-DY647 on JAR cells)
Parameters: JAR cells expressing ENT1 were bought from ATCC; host or cells: JAR cells
Conditions: binned IC50
pIC50: −log10 of the molar value.
Overview of recorded pIC50 for various compounds

// below: answered compounds
compound | readout.value
COCCN(CCOC)c1nc(N2CCN(C)C(=O)C2)c2nc(N3CCN(c4ncccc4N)CC3)nc(N3CCC(OC)CC3)c2n1 [Compound 294] | > 7.00
COCCN(CCOC)c1nc(N2CCC(OC)CC2)c2nc(N(CCOC)CCOC)nc(NCc3cccc(F)c3)c2n1 [Compound 142] | > 7.00
COCCN(CCOC)c1nc(N2C[C@@H](C)O[C@@H](C)C2)c2nc(N(CCOC)CCOC)nc(N3CCC(OC)CC3)c2n1 [Compound 110] | > 7.00

We next turn to a different compound, shown below.
The observed pIC50 for COCCN(CCOC)c1nc(N2CCC(C)C2)c2nc(N(CCOC)CCOC)nc(N3CCC(OC)CC3)c2n1 (stereo not shown) [Compound 91] when tested with human ENT1 (Homo sapiens) stands at 6.30 to 7.00

---

Molecular target: human ENT1 (Homo sapiens, UniProt Q99808)
Assay: ENT1 binding assay (competition with Sahenta-DY647 on JAR cells)
Parameters: JAR cells expressing ENT1 were bought from ATCC; host or cells: JAR cells
Conditions: binned IC50
value.kind: IC50

line.notation | IC50
COCCN(CCOC)c1nc(N2CCN(C)C(=O)C2)c2nc(N(CCOC)CCOC)nc(N(C)Cc3cccc(C(N)=O)c3)c2n1 | 0.1 to 0.5 µM
COCCN(CCOC)c1nc(N2CCC(OC)CC2)c2nc(N(CCOC)CCOCCN3C(=O)c4ccccc4C3=O)nc(N3CCC(OC)CC3)c2n1 | 0.1 to 0.5 µM
COCCN(CCOC)c1nc(N2CCn3nccc3C2)c2nc(N(CCOC)CCOC)nc(N3CCN(C)C(=O)C3)c2n1 | < 0.1 µM
COCCOC1CCN(c2nc(N(CCOC)CCOC)nc3c(N4CCC(OC)CC4)nc(N(CCOC)CCOC)nc23)CC1 | 0.5 to 1 µM
COCCN(CCOC)c1nc(N2CC(C)(C)C2)c2nc(N(CCOC)CCOC)nc(N3CCC(OC)CC3)c2n1 | 0.1 to 0.5 µM

We next turn to a different compound, shown below.
The observed IC50 for COCCN(CCOC)c1nc(N2CCC(OC)CC2)c2nc(N(CCOC)CCOC)nc(NCc3ccc(C(F)(F)F)nc3)c2n1 when tested with human ENT1 (Homo sapiens, UniProt Q99808) stands at 0.5 to 1 µM

---

Biological target: human ENT1 (Homo sapiens, UniProt Q99808)
Experiment: ENT1 binding assay (competition with Sahenta-DY647 on JAR cells)
Parameters: JAR cells expressing ENT1 were bought from ATCC; host or cells: JAR cells
Details: binned IC50
value.kind: IC50

// below: answered compounds
line.notation | IC50
COCCN(CCn1ccnc1)c1nc(N2CCN(C)C(=O)C2)c2nc(N(CCOC)CCOC)nc(N3CCC(OC)CC3)c2n1 | 100 to 500 nM
COCCN(CCOC)c1nc(N2CCN(c3ncn(C)n3)CC2)c2nc(N(CCOC)CCOC)nc(N(C)Cc3cccc(F)c3)c2n1 | 100 to 500 nM
COCCN(CCOC)c1nc(N2CCN(C)C(=O)C2)c2nc(N(CCOC)CCOC)nc(N(C)Cc3ccc(F)c(F)c3)c2n1 | < 100 nM
COCCN(CCOC)c1nc(N2CC[C@@H](OC)C2)c2nc(N(CCOC)CCOC)nc(N3CCC(OC)CC3)c2n1 | 100 to 500 nM

We next turn to a different compound, shown below.
IC50 measured on COCCN(CCOC)c1nc(N2CC(CO)C2)c2nc(N(CCOC)CCOC)nc(N3CCC(OC)CC3)c2n1 = 100 to 500 nM

---

Overview of recorded pIC50 for various compounds
Molecular target: human ENT1 (Homo sapiens, UniProt Q99808)
Assay: ENT1 binding assay (competition with Sahenta-DY647 on JAR cells)
Set-up: JAR cells expressing ENT1 were bought from ATCC; host or cells: JAR cells
Details: binned IC50
pIC50: −log10 of the molar value.

// below: answered compounds
line.notation | pIC50
COCCN(CCOC)c1nc(N2CCC(OC)CC2)c2nc(N(CCOC)CCOC)nc(N3CCC(COC)CC3)c2n1 | 6.00 to 6.30
COCCN(CCOC)c1nc(N2CCC(OC)CC2)c2nc(N(CCOC)CCOC)nc(NCC(C)(C)C)c2n1 | 6.30 to 7.00
COCCN(CCOC)c1nc(N2CCC(OC)CC2)c2nc(N3CCn4cncc4C3)nc(N3CCN(C)C(=O)C3)c2n1 | 6.30 to 7.00

The observed pIC50 for COCCN(CCOC)c1nc(N2CCn3cncc3C2)c2nc(N(CCOC)CCOC)nc(N3CCC(OC)CC3)c2n1 when tested with human ENT1 (Homo sapiens, UniProt Q99808) stands at > 7.00

---

Target: human ENT1 (Homo sapiens)
Experiment: ENT1 binding assay (competition with Sahenta-DY647 on JAR cells)
Parameters: JAR cells expressing ENT1 were bought from ATCC; host or cells: JAR cells
Conditions: binned IC50
value.kind: IC50

// below: answered compounds
compound | IC50
COCCN(CCOC)c1nc(N2CCC(OC)CC2)c2nc(N(CCOC)CCOC)nc(NCCc3cccnc3)c2n1 [Compound 63] | 100 to 500 nM
COCCN(CCOC)c1nc(N2CCC(OC)CC2)c2nc(N(CCOC)CCOC)nc(NCc3cccc(S(C)(=O)=O)c3)c2n1 [Compound 148] | 100 to 500 nM
COCCN(CCOC)c1nc(N2CCN(c3nccc(C)n3)CC2)c2nc(N(CCOC)CCOC)nc(N3CCC(OC)CC3)c2n1 [Compound 122] | 100 to 500 nM
COCCN(CCOC)c1nc(N2CCN(C)C(=O)C2)c2nc(N(CCOC)CCOC)nc(N(C)Cc3cccc(F)c3)c2n1 [Compound 233] | < 100 nM
COCCN(CCOC)c1nc(N2CCC(O)C2)c2nc(N(CCOC)CCOC)nc(N3CCC(OC)CC3)c2n1 (stereo not drawn) [Compound 94] | 500 to 1000 nM

We next turn to a different compound, shown below.
IC50 measured on CCCN(CCC)c1nc(N(CCOC)CCOC)nc2c(N3CCC(OC)CC3)nc(N(CCOC)CCOC)nc12 [Compound 165] = < 100 nM

---

Biological target: human ENT1 (Homo sapiens)
Sequence (Q99808 1-456): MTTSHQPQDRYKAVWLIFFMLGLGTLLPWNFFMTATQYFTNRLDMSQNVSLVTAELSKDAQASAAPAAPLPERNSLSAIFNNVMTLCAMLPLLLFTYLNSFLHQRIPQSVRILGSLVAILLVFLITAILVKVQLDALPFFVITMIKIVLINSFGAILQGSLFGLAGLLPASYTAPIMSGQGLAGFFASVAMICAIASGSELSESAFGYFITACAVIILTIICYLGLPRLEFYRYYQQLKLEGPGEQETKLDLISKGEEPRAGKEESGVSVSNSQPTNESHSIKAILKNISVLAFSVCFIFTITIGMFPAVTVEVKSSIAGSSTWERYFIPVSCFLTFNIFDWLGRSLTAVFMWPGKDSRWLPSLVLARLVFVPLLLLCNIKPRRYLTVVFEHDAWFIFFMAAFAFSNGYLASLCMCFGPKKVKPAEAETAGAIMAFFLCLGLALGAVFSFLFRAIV
Test: ENT1 binding assay (competition with Sahenta-DY647 on JAR cells)
Design: JAR cells expressing ENT1 were bought from ATCC; host or cells: JAR cells
Conditions: binned IC50
pIC50: −log10 of the molar value.
value.kind: pIC50

// below: answered compounds
compound | readout.value
COCCN(Cc1cc(F)c(C(=O)O)c(F)c1)c1nc(N2CCN(C)C(=O)C2)c2nc(N(CCOC)CCOC)nc(N3CCC(OC)CC3)c2n1 [Compound 340] | > 7.00
COCCN(CCOC)c1nc(N2CC(O)(C(F)(F)F)C2)c2nc(N(CCOC)CCOC)nc(N3CC(O)(C(F)(F)F)C3)c2n1 [Compound 11] | > 7.00
COCCN(CCOC)c1nc(N2CCc3nn(C)cc3C2)c2nc(N(CCOC)CCOC)nc(N3CCN(C)C(=O)C3)c2n1 [Compound 252] | > 7.00

We next turn to a different compound, shown below.
pIC50 measured on COCCN(CCOC)c1nc(N(C)C2CCCC2)c2nc(N(CCOC)CCOC)nc(N3CCC(OC)CC3)c2n1 [Compound 166] = 6.30 to 7.00

---

Biological target: human ENT1 (Homo sapiens)
Experiment: ENT1 binding assay (competition with Sahenta-DY647 on JAR cells)
Set-up: JAR cells expressing ENT1 were bought from ATCC; host or cells: JAR cells
Conditions: binned IC50
value.kind: IC50

// below: answered molecules
molecule | IC50
COC1CCN(c2nc(N(CCOC(C)=O)CCOC(C)=O)nc3c(N4CCC(OC)CC4)nc(N(CCOC(C)=O)CCOC(C)=O)nc23)CC1 | < 100 nM
COCCN(CCOC)c1nc(N2CCN(C)C(=O)C2)c2nc(N(CCOC)CCOC)nc(N(C)Cc3ccc(F)c(C#N)c3)c2n1 | < 100 nM

IC50 measured on COCCN(CCOC)c1nc(N2CCC(OC)CC2)c2nc(N(CCOC)CCOC)nc(N(C)CC(C)C)c2n1 = < 100 nM

IC50 measured on COCCN(CCOC)c1nc(N2CCC(OC)CC2)c2nc(N(CCO)CCO)nc(N3CC(=O)N(C)C(C)C3)c2n1 (stereo not drawn) = 100 to 500 nM

IC50 measured on CCCNc1nc(N(CCOC)CCOC)nc2c(N3CCN(c4ncn(C)n4)CC3)nc(N(CCOC)CCOC)nc12 = 100 to 500 nM

IC50 measured on COCCN(CCOC)c1nc(N2CCN(C)C(=O)C2)c2nc(N(CCOC)CCOC)nc(NCc3cccc(S(C)(=O)=O)c3)c2n1 = 500 to 1000 nM

IC50 measured on COCCN(CCOC)c1nc(N2CCC(OC)CC2)c2nc(NCCn3cccn3)nc(N3CCC(OC)CC3)c2n1 = 500 to 1000 nM

IC50 measured on COCCN(CCOC)c1nc(N2CCC(OC)CC2)c2nc(N(CCOC)CCOC)nc(NCCCCC#N)c2n1 = 100 to 500 nM

IC50 measured on COCCN(CCOC)c1nc(N2CCN(C3CC3)C(=O)C2)c2nc(N(CCO)CCO)nc(N3CCC(OC)CC3)c2n1 = 500 to 1000 nM

IC50 measured on COCCN(CCOC)c1nc(N2CCC(OC)CC2)c2nc(N(CCO)CCO)nc(N3CCN(C)C(=O)C3)c2n1 = 100 to 500 nM
